meta.source: patent US9221796B2

Target: NR2B-subtype NMDA receptors (Rattus norvegicus (Rat), UniProt P35439+Q00960)
Sequence (Q00960 27-1482, other chains not shown): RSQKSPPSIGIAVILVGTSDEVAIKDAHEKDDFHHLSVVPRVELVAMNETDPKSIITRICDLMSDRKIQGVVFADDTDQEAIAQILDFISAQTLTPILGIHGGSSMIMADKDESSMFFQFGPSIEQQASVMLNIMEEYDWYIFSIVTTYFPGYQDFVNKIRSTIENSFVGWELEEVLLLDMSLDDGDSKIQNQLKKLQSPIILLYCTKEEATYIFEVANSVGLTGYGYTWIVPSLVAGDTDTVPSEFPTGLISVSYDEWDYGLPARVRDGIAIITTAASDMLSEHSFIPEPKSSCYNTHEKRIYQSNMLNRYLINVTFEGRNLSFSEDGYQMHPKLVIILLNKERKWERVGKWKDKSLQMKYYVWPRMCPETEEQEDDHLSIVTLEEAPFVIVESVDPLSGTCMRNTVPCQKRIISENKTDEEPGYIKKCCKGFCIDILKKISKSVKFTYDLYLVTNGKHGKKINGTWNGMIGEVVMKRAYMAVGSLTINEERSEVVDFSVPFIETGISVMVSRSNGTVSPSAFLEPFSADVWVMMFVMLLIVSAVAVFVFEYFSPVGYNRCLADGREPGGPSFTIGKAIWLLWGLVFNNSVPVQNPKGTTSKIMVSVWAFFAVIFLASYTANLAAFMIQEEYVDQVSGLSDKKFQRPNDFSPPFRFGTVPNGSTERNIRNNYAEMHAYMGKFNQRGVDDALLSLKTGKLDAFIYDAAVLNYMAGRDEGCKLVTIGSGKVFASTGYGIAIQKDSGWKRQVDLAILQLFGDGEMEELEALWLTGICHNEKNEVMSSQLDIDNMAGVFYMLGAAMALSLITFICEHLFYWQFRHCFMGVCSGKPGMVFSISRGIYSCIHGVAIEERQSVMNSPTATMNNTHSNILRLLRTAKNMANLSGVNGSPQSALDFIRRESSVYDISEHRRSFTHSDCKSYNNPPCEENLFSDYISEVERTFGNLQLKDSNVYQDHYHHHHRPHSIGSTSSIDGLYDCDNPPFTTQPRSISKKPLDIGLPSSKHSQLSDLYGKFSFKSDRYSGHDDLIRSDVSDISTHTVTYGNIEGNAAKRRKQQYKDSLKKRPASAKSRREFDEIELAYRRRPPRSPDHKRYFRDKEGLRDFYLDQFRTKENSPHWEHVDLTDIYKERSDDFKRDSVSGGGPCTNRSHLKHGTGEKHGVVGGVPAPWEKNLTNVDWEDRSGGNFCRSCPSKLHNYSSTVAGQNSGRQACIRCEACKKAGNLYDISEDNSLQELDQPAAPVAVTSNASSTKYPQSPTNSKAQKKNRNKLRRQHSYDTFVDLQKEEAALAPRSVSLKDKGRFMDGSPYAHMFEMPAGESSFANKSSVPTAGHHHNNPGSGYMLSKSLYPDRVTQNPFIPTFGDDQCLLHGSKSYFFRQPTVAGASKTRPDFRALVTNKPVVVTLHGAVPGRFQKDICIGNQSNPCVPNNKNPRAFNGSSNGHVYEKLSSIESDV
Experiment: Radioligand binding assay (3H Ro 25-6981 competition, forebrain membranes)
Condition label: 3H Ro 25-6981 (4 nM), read-out: NR2B Binding Ki
Result type: pKi
Would you please state pKi, meaning minus log10 of the concentration in mol/L, as a bare number?

Exam item: Retrieve pKi measured for O=C1C(N2CC(c3ccc(O)cc3)C2)CCN1Cc1ccc(F)cc1 (centres unmarked) and print it.
Marked response: 6.29

Exam item: Look up and state reported pKi for Cc1cc(O)ccc1C1CCN(C2CCN(Cc3ccccc3)C2=O)CC1 (centres unmarked)
Marked response: 7.11

Further cases:
Exam item: Output measured pKi for this item: O=C1[C@@H](N2CCC(c3ccc(O)cc3)C(F)(F)C2)CCN1Cc1ccc(F)c(F)c1 (single isomer, unassigned)
Marked response: 5.92

Exam item: Given the compound O=C1C(N2CCC(c3ccc(O)cc3)C(F)(F)C2)CCN1Cc1ccc(Cl)c(Cl)c1 (centres unmarked) [Example 98] , write its reported pKi.
Marked response: 6.64

Exam item: Fill in pKi for record O=C1[C@H](N2CCC(c3ccc(O)cc3)C(F)(F)C2)CCN1Cc1ccc(Cl)c(F)c1 (some centres unmarked) [Example 96, P-2]
Marked response: 7.74

Exam item: Answer with reported pKi of O=C1[C@@H](N2CCC(c3ccc(O)cc3)CC2)CCN1Cc1ccc(O)cc1 [Example 25a]
Marked response: 5.92

Exam item: Report measured pKi; entry is O=C1C(N2CCC(c3ccc(O)cc3)CC2)CCCN1Cc1ccccc1 (single isomer, unassigned) [Example 41a]
Marked response: 6.00

Exam item: Respond only with pKi recorded for O=C1C(N2CC[C@@H](c3ccc(O)cc3)[C@H](F)C2)CCN1Cc1ccc(F)c(F)c1 (some centres unmarked)
Marked response: 7.47
